Where these numbers come from: ChEMBL document CHEMBL4368857

- SYSTEM_TESTED: Amyloid-beta precursor protein (Homo sapiens)
- Sequence (P05067 whole entry): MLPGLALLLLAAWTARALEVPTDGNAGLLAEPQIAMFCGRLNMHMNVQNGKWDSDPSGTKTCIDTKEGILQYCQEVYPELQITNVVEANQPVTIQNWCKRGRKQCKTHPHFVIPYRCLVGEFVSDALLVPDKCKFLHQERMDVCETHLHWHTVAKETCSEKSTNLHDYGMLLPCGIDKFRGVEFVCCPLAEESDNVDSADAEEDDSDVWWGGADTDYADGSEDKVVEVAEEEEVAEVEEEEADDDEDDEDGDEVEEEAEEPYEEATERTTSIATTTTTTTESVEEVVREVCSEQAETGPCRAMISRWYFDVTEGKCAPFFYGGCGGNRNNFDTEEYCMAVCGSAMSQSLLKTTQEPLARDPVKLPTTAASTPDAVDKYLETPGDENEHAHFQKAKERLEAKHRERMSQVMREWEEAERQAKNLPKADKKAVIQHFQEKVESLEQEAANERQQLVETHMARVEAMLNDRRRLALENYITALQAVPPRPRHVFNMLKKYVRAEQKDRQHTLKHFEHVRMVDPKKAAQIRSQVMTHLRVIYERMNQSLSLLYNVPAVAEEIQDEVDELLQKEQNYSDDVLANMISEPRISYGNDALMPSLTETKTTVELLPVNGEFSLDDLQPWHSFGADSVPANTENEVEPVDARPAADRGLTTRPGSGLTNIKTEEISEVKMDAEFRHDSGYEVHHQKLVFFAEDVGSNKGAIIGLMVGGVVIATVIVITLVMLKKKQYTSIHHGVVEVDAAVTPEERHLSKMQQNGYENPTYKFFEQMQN
- METHOD_SUMMARY: Inhibition of HFIP-pretreated amyloid beta (1 to 42) (unknown origin) self-induced aggregation at 50 uM after 48 hrs by thioflavin T-based fluorometric assay relative to control
We begin with a simple list: items and their reported inhibition.
Value expressed in %; do not type the unit.

Solved entries:
| SMILES_REPRESENTATION | UNIT_OF_MEASUREMENT | TEST_RESULT |
| --- | --- | --- |
| CCOc1cc(CNc2ccc(F)cc2F)ccc1Oc1ccnc2cc(Cl)ccc12 | % | 27.8 |
| CCOc1cc(CNc2ccc(OC)cc2)ccc1Oc1ccnc2cc(Cl)ccc12 | % | 53.7 |
| CCOc1cc(CNc2ccc(C)cc2)ccc1Oc1ccnc2cc(Cl)ccc12 | % | 46.8 |

Query string: Given `CCOc1cc(CNc2cccc(C)n2)ccc1Oc1ccnc2cc(Cl)ccc12` , state its recorded inhibition.
Result string: 41.6

Query string: For `CCOc1cc(CNc2cccc(C(F)(F)F)c2)ccc1Oc1ccnc2cc(Cl)ccc12` , what is its reported inhibition?
Result string: 30

Query string: Quick one: inhibition of `CCOc1cc(CNc2ccccc2)ccc1Oc1ccnc2cc(Cl)ccc12` ?
Result string: 53.6

Query string: Sample `CCOc1cc(CNc2ccccn2)ccc1Oc1ccnc2cc(Cl)ccc12` — what was its inhibition?
Result string: 41.5
